Particulars: 298.15 K; 101.33 kPa; Liquid
Assign class by mass density: not lower than 800 kg/m3 means True; lower than 800 kg/m3 means False.

Does "CCCCCCCCCCCC" have a reported mass density of at least 800 kg/m3?
False

# check: mass density of "CCCCCCCCCCCCCCCC" is greater than or equal to 800 kg/m3
False

Decide: is the reported value of mass density for "CCCCCCCCCCCCCC" equal to or greater than 800 kg/m3?
False

Answer whether mass density of CCCCC(=O)OC(=O)CCCC [pentanoic anhydride] is greater than or equal to 800 kg/m3.
True

In plain terms: is recorded mass density at least 800 kg/m3 for CCCCCC(=O)OC(=O)CCCCC [caproic anhydride] ?
True

Where do these numbers come from? They come from the NIST ThermoML archive (doi:10.1021/je900598y).
